Tested on: CEM cells HIV-1 protection, formazan growth assay
test-description: NCI AIDS Antiviral Assay
endpoint-name: EC50

Before answering, review these 2 worked examples.
Request: Bench note: what EC50 did Cc1ccc(S(=O)(=O)N2CC3(CN(S(=O)(=O)c4ccc(C)cc4)CC4(C2)OCCO4)OCCO3)cc1 show?
Result: > 200 µM

Request: Give the measured EC50 of COC(=O)C1=C(C)C(=O)C2(CCCCCC2C(=O)OC)C1 (centres undefined) .
Result: > 200 µM

Please supply EC50 for each of the following items, keeping them in order.
1. CCn1c2ccccc2c2c3ncc4cccn4c3ccc21
2. COC(=O)C(Cc1nc2ccccc2[nH]c1=O)/C(=N\NC(C)(C)C)C(=O)Nc1c(C)cc(Br)cc1C (centres undefined)

Result:
1. > 200 µM
2. > 64.6 µM
